B1: PPFIA4 (parent)
chain: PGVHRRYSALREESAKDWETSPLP

# Variants of: B1
# testDescription: protein stability index of a GFP-peptide fusion (GPS, HEK-293T) (PSI 1-6); higher = more stable;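 also: lentivirally expressed fusions sorted by FACS into six bins by GFP to DsRed ratio, PSI derived from sequencing read proportions per bin multiplied by bin number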
# setupConditions: c terminus: a fixed tail appended
Listing: protein stability index of selected variants
measuredProperty: protein stability index

>  <mutantName>
V3C

>  <measuredProperty>
protein stability index

>  <quantitativeReadout>
4.08

$$$$
>  <mutantName>
D17Y

>  <measuredProperty>
protein stability index

>  <quantitativeReadout>
2.72

$$$$
>  <mutantName>
P24D

>  <measuredProperty>
protein stability index

>  <quantitativeReadout>
4.59

$$$$
>  <mutantName>
A9W

>  <measuredProperty>
protein stability index

>  <quantitativeReadout>
3.58

$$$$
>  <mutantName>
P1Y

>  <measuredProperty>
protein stability index

>  <quantitativeReadout>
4.17

$$$$
>  <mutantName>
A15C

>  <measuredProperty>
protein stability index

>  <quantitativeReadout>
3.63

$$$$
>  <mutantName>
E13L

>  <measuredProperty>
protein stability index

>  <quantitativeReadout>
3.34

$$$$
>  <mutantName>
P1N

>  <measuredProperty>
protein stability index

>  <quantitativeReadout>
3.88

$$$$
>  <mutantName>
S21L

>  <measuredProperty>
protein stability index

>  <quantitativeReadout>
3.6

$$$$
>  <mutantName>
S8L

>  <measuredProperty>
protein stability index

>  <quantitativeReadout>
3.54

$$$$
>  <mutantName>
S21F

>  <measuredProperty>
protein stability index

>  <quantitativeReadout>
3.34

$$$$
>  <mutantName>
G2V

>  <measuredProperty>
protein stability index

>  <quantitativeReadout>
4.16

$$$$
>  <mutantName>
R11N

>  <measuredProperty>
protein stability index

>  <quantitativeReadout>
4.58

$$$$
>  <mutantName>
D17R

>  <measuredProperty>
protein stability index

>  <quantitativeReadout>
3.34

$$$$
>  <mutantName>
R5M

>  <measuredProperty>
protein stability index

>  <quantitativeReadout>
4.71

$$$$
>  <mutantName>
P22T

>  <measuredProperty>
protein stability index

>  <quantitativeReadout>
3.04

$$$$
>  <mutantName>
H4V

>  <measuredProperty>
protein stability index

>  <quantitativeReadout>
3.8

$$$$
>  <mutantName>
E12K

>  <measuredProperty>
protein stability index

>  <quantitativeReadout>
3.96

$$$$
>  <mutantName>
E12Q

>  <measuredProperty>
protein stability index

>  <quantitativeReadout>
3.68

$$$$
>  <mutantName>
W18I

>  <measuredProperty>
protein stability index

>  <quantitativeReadout>
4.81

$$$$
>  <mutantName>
K16M

>  <measuredProperty>
protein stability index

>  <quantitativeReadout>
4.24

$$$$
>  <mutantName>
G2C

>  <measuredProperty>
protein stability index

>  <quantitativeReadout>
3.42

$$$$
>  <mutantName>
G2Y

>  <measuredProperty>
protein stability index

>  <quantitativeReadout>
4.08

$$$$
>  <mutantName>
A9Y

>  <measuredProperty>
protein stability index

>  <quantitativeReadout>
3.4

$$$$
>  <mutantName>
A9L

>  <measuredProperty>
protein stability index

>  <quantitativeReadout>
4.27

$$$$
>  <mutantName>
S21H

>  <measuredProperty>
protein stability index

>  <quantitativeReadout>
3.42

$$$$
